System: NIH3T3
Assay: Cytotoxic Profiling of Annotated Libraries Using Quantitative High-Throughput Screening (AID 1296008); note: % is set by controls: 0 for no effect and ±100 for the full control effect; nearly all actives have a fitted effect of over 60% in size
Conditions: Five cell lines viability, CellTiter-Glo ATP luminescence, 48-72 h; hits give low values
Records with an inconclusive call do not appear.
# maps each entry to its max response
Lab book: enter the figure in %, no units written.

Observed max response on NIH3T3, entry CC1C2=CC(=O)OC2(O)CC2C1C(OC(=O)c1ccccc1)C(OC(=O)c1ccccc1)C1(O)C2(C)CCC(O)C1(C)C(=O)O (stereo not drawn) , equals -2.68

Continuing:
Observed max response on NIH3T3, entry `OC[C@H]1O[C@@H](O[C@H]2[C@H](O)[C@@H](CO)O[C@@H](OCc3ccccc3)[C@@H]2O[C@@H]2OC[C@](O)(CO)[C@H]2O)[C@H](O)[C@@H](O)[C@@H]1O` , equals 1.27

Observed max response on NIH3T3, entry CCCSc1nc(NC2CC2c2ccc(F)c(F)c2)c2nnn(C3CC(OCCO)C(O)C3O)c2n1 (stereo not drawn) , equals -3.04

Observed max response on NIH3T3, entry CCC(C)/C=C(C)/C=C/C1=CC2=C(Cl)C(=O)C(C)(OC(C)=O)C(=O)C2=CN1C(CC(=O)O)C(=O)O (stereo not drawn) , equals -16.9

Observed max response on NIH3T3, entry C[C@@H]1O[C@@H](O[C@H]2[C@H](O)[C@@H](O[C@@H]3O[C@H](CO)[C@H](O)[C@H](O)[C@H]3O)[C@H](O[C@H]3CC[C@@]4(C)C(CC[C@]5(C)C4CC=C4[C@@H]6CC(C)(C)CC[C@]6(C(=O)O[C@@H]6O[C@H](CO)[C@@H](O)[C@H](O)[C@H]6O)CC[C@]45C)C3(C)C)O[C@@H]2C(=O)O)[C@H](O)[C@H](O)[C@H]1O (stereo partly drawn) , equals -6.48

Observed max response on NIH3T3, entry COC(=O)C1=COC(OC2OC(CO)C(O)C(O)C2O)C2C(C)C(OC(=O)/C=C/c3ccc(O)cc3)C(O)C12 (stereo not drawn) , equals -1.55

Observed max response on NIH3T3, entry CC1=C2CC3C(CCC3(C)O)C(C)(O)CC2OC1=O (stereo not drawn) , equals -16.4

Observed max response on NIH3T3, entry CC(O)C1CCC2C3CCC4CC(OC5OC(C(=O)O)C(O)C(O)C5O)CCC4(C)C3CCC12C (stereo not drawn) , equals -3.21

* * *

Test system: HaCat
Test: Cytotoxic Profiling of Annotated Libraries Using Quantitative High-Throughput Screening (AID 1296008); note: % is set by controls: 0 for no effect and ±100 for the full control effect; nearly all actives have a fitted effect of over 60% in size
Conditions: Five cell lines viability, CellTiter-Glo ATP luminescence, 48-72 h; hits give low values
Protocol: Cell-based phenotypic screening is a commonly used approach to discover biological pathways, novel drug targets, chemical probes and high-quality hit-to-lead molecules. […] A pintool (Kalypsys) was used to transfer 23 nL of compound solution to the 1536-well assay plates. […] Plates were left at room temperature for 10 min before imaging the ATP-coupled luminescence using a ViewLux microplate imager (PerkinElmer, Waltham, MA).
Records with an inconclusive call do not appear.
measurement_name: max response (%)
Lab book: enter the figure in %, no units written.

The examples below pair each entry with its known result.
# max response of `CO[C@@H]1[C@]2(O)C(=O)N3/C=C\C(C)(C)c4[nH]c5ccccc5c4/C=C\3C(=O)N2[C@]23[C@H](CO)C(C)(C)N2c2ccccc2[C@]13O` = -14.4

# max response of C/C=C/C=C/C=C/C(=O)O[C@@H]1[C@@H](OC)C2=C(C(=O)N(C(CCC(=O)O)C(=O)O)C2)[C@@]2(C)CCCC(C)(C)[C@H]12 (stereo partly specified) = -8.01

# max response of CC1=C2C(=O)C=C(CO)C2C2OC(=O)C(CS(=O)(=O)O)C2C(OC(=O)Cc2ccc(O)cc2)C1 (stereo unspecified) = -1.36

# max response of C[C@H]1[C@@H](O)[C@H](O)C2[C@]3(C)C([C@@H](O)[C@H]4OC(=O)[C@@H]1[C@@]24C)[C@](C)(O)C=C[C@H]3O[C@@H]1O[C@H](CO)[C@@H](O)[C@H](O)[C@H]1O (stereo partly specified) = -2.23

# max response of `CC1=CCC[C@@H]2[C@](CCc3ccoc3)(C(=O)O)[C@H](C)CC[C@@]12C` = -10.6

Continuing:
# max response of CC1=C(CCC(C)O[C@@H]2O[C@H](CO)[C@@H](O)[C@H](O)[C@H]2O)C(C)(C)CC(O)C1 (stereo partly specified) = -0.421

# max response of CCCCS(=O)(=O)NC(Cc1ccc(OCCCCC2CCNCC2)cc1)C(=O)O (stereo unspecified) = 4.29
